FYI, the data here is from paper PMC7307906.

System: human MC5R (Homo sapiens, UniProt P33032) | Read-out: IC50
Sequence (P33032 whole entry): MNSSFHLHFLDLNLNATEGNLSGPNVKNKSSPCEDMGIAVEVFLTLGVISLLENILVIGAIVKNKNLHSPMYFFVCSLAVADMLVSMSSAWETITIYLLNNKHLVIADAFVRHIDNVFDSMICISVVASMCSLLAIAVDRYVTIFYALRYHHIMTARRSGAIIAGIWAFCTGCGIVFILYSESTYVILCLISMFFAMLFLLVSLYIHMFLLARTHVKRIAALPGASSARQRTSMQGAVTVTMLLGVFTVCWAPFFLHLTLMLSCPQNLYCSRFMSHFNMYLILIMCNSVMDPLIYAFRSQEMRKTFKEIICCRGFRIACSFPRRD
Where a SMILES comes first, the peptide text is derived from it.

IN: Indicate its recorded IC50; the molecule in question is C[C@@H]1NC(=O)[C@H](CC(N)=O)NC(=O)[C@H](Cc2ccccc2)NC(=O)[C@H](Cc2ccccc2)NC(=O)[C@H](CCCNC(=N)N)NC(=O)[C@@H](NC(=O)[C@@H](N)Cc2ccc(O)cc2)CSSC[C@@H](C(=O)N[C@@H](Cc2ccc(O)cc2)C(N)=O)NC(=O)[C@H](Cc2ccccc2)NC1=O [compound 28, reference compound] (HELM PEPTIDE1{Y.C.R.F.F.N.A.F.C.Y.[am]}$PEPTIDE1,PEPTIDE1,2:R3-9:R3$$$V2.0)
OUT: 1.6 µM

IN: Indicate its recorded IC50; the molecule in question is CN1C(=O)[C@H]2N[C@@H](c3ccc(cc3)C(=O)NCCCC[C@@H](C(=O)NCC(N)=O)NC(=O)[C@H](Cc3ccccc3)NC(=O)[C@H](Cc3ccccc3)NC(=O)[C@H](CCCNC(=N)N)NC(=O)[C@@H]1Cc1ccccc1)[C@H]1C(=O)N(c3ccccc3)C(=O)[C@H]12 [N2-major*, [II-FRFFK ]G]
OUT: 38 µM

IN: Indicate its recorded IC50; the molecule in question is C[C@@H]1NC(=O)[C@H](CC(N)=O)NC(=O)[C@H](Cc2ccccc2)NC(=O)[C@H](Cc2ccccc2)NC(=O)[C@H](CCCNC(=N)N)NC(=O)[C@H](Cc2ccccc2)N(C)C(=O)[C@@H]2N[C@H](c3ccc(cc3)C(=O)NCCCC[C@@H](C(=O)N[C@@H](Cc3ccc(O)cc3)C(N)=O)NC(=O)[C@H](Cc3ccccc3)NC1=O)[C@@H]1C(=O)N(C)C(=O)[C@@H]12 [B1-major, [ I-FRFFNAFK ]Y]
OUT: 16 µM

IN: Indicate its recorded IC50; the molecule in question is C[C@@H]1NC(=O)[C@H](CC(N)=O)NC(=O)[C@@H](Cc2ccccc2)NC(=O)[C@@H](Cc2ccccc2)NC(=O)[C@H](CCCNC(=N)N)NC(=O)[C@@H](NC(=O)[C@@H](N)Cc2ccc(O)cc2)CSSC[C@@H](C(=O)N[C@@H](Cc2ccc(O)cc2)C(N)=O)NC(=O)[C@H](Cc2ccccc2)NC1=O [compound 29, Y[CRffNAFC]Y, reference compound] (HELM PEPTIDE1{Y.C.R.[dF].[dF].N.A.F.C.Y.[am]}$PEPTIDE1,PEPTIDE1,2:R3-9:R3$$$V2.0)
OUT: 2.5 µM

IN: Indicate its recorded IC50; the molecule in question is C[C@@H]1NC(=O)[C@H](CC(N)=O)NC(=O)[C@H](Cc2ccccc2)NC(=O)[C@H](Cc2ccccc2)NC(=O)[C@H](CCCNC(=N)N)NC(=O)[C@H](Cc2ccccc2)N(C)C(=O)[C@H]2N[C@@H](c3ccc(cc3)C(=O)NCCCC[C@@H](C(=O)N[C@@H](Cc3ccc(O)cc3)C(N)=O)NC1=O)[C@H]1C(=O)N(C)C(=O)[C@H]12 [F1-major*, [ I-FRFFNAK ]Y]
OUT: 49 µM

* * *

pIC50 reference
Molecular target: human MC4R (Homo sapiens, UniProt P32245)
Sequence (P32245 whole entry): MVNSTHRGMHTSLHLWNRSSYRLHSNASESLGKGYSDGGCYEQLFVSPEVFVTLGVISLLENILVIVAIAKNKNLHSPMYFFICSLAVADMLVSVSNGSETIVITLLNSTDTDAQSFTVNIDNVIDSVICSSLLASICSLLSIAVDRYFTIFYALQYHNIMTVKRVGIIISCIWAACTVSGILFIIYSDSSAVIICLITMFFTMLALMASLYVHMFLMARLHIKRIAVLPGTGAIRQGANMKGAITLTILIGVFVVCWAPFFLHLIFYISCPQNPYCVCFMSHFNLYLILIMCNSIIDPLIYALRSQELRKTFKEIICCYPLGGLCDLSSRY
pIC50: −log10 of the molar value.

compound="COc1ccc(N2C(=O)[C@@H]3[C@H](C2=O)[C@H]2N[C@@H]3C(=O)N(C)[C@@H](Cc3ccccc3)C(=O)N[C@@H](CCCNC(=N)N)C(=O)N[C@H](Cc3ccccc3)C(=O)N[C@H](Cc3ccccc3)C(=O)N[C@@H](CC(N)=O)C(=O)N[C@H](C(=O)NCC(N)=O)CCCCNC(=O)c3ccc2cc3)cc1 [K4-minor, [III-FRffNK ]G]" tested_system="human MC4R (Homo sapiens, UniProt P32245)" readout_type=pIC50 result="< 4.00"

IN: State recorded pIC50 with human MC4R (Homo sapiens, UniProt P32245), entry CN1C(=O)[C@@H]2[C@H](C1=O)[C@H]1N[C@@H]2C(=O)N(C)[C@@H](Cc2ccccc2)C(=O)N[C@@H](CCCNC(=N)N)C(=O)N[C@H](Cc2ccccc2)C(=O)N[C@H](Cc2ccccc2)C(=O)N[C@H](C(=O)N[C@@H](Cc2ccc(O)cc2)C(N)=O)CCCCNC(=O)c2ccc1cc2 [O1-minor, [I-FRffK ]Y] , no comment.
OUT: < 5.00

IN: State recorded pIC50 with human MC4R (Homo sapiens, UniProt P32245), entry CN1C(=O)[C@H]2N[C@@H](c3ccc(cc3)C(=O)NCCCC[C@@H](C(=O)N[C@@H](Cc3ccc(O)cc3)C(N)=O)NC(=O)[C@H](CC(N)=O)NC(=O)[C@@H](Cc3ccccc3)NC(=O)[C@@H](Cc3ccccc3)NC(=O)[C@H](CCCNC(=N)N)NC(=O)[C@@H]1Cc1ccccc1)[C@H]1C(=O)N(c3ccccc3)C(=O)[C@H]12 [K1-minor, [II-FRffNK ]Y] , no comment.
OUT: < 4.00

IN: State recorded pIC50 with human MC4R (Homo sapiens, UniProt P32245), entry C[C@@H]1NC(=O)[C@H](CC(N)=O)NC(=O)[C@H](Cc2ccccc2)NC(=O)[C@H](Cc2ccccc2)NC(=O)[C@H](CCCNC(=N)N)NC(=O)[C@H](Cc2ccccc2)N(C)C(=O)[C@H]2N[C@@H](c3ccc(cc3)C(=O)NCCCC[C@@H](C(=O)N[C@@H](Cc3ccc(O)cc3)C(N)=O)NC1=O)[C@H]1C(=O)N(C)C(=O)[C@H]12 [F1-major*, [ I-FRFFNAK ]Y] , no comment.
OUT: < 4.00
